Biological target: Gamma-secretase
Assay: Inhibition of gamma secretase-mediated amyloid beta42 production in HEK293 cells by sandwich immunoassay
Value kind: IC50 (nM)
Return type: number; implicit unit nM.

See these solved cases before continuing.
Compound	IC50, nM
COc1cc(-c2onc3c2CCCN3Cc2cc(F)cc(F)c2)ccc1-n1cnc(C)c1	440
CCCC(c1ccc(F)cc1)N1CCCn2c(-c3ccc(-n4cnc(C)c4)c(OC)c3)nnc21 (stereo not given)	145

[ask] # input compound: `COc1cc(-c2nnc3n2CCCN3C(=O)c2ccc(F)cc2)ccc1-n1cnc(C)c1` ; wanted: its IC50
[reply] 19300

[ask] Field request: IC50 | item: `COc1ccc(CN2CCCn3c(-c4ccc(-n5cnc(C)c5)c(OC)c4)nnc32)cc1`
[reply] 1410

[ask] Given the entry COc1cc(-c2n[nH]c3c2CCCN3C(C)c2ccc(F)cc2)ccc1-n1cnc(C)c1 (stereo not given) , report its measured IC50.
[reply] 164

---

Target: Gamma-secretase (Homo sapiens) (UniProt Q96BI3+Q9NZ42+Q8WW43+P49768+Q92542+P49810)
Test: Selectivity ratio of IC50 for gamma secretase-mediated total amyloid beta production to IC50 for gamma secretase-mediated amyloid beta42 production in HEK293 cells
Format: cell-based
Value kind: Ratio IC50
I only need the number, thanks.

Worked examples, 8 compounds total:
Compound	Target or test system	Value
CCCCC(=O)N1CCCn2c(-c3ccc(-n4cnc(C)c4)c(OC)c3)nnc21	Gamma-secretase (Homo sapiens) (UniProt Q96BI3+Q9NZ42+Q8WW43+P49768+Q92542+P49810)	10
COc1cc(-c2nnc3n2CCCN3Cc2ccc(F)cc2)ccc1-n1cnc(C)c1	Gamma-secretase (Homo sapiens) (UniProt Q96BI3+Q9NZ42+Q8WW43+P49768+Q92542+P49810)	31
COc1cc(-c2nnc3n2CCCN3C(C)c2c(F)cc(F)cc2F)ccc1-n1cnc(C)c1 (centres undefined)	Gamma-secretase (Homo sapiens) (UniProt Q96BI3+Q9NZ42+Q8WW43+P49768+Q92542+P49810)	58
CCCC(c1ccc(F)cc1)N1CCCn2c(-c3ccc(-n4cnc(C)c4)c(OC)c3)nnc21 (centres undefined)	Gamma-secretase (Homo sapiens) (UniProt Q96BI3+Q9NZ42+Q8WW43+P49768+Q92542+P49810)	138
COc1cc(-c2onc3c2CCCN3Cc2cc(F)cc(F)c2)ccc1-n1cnc(C)c1	Gamma-secretase (Homo sapiens) (UniProt Q96BI3+Q9NZ42+Q8WW43+P49768+Q92542+P49810)	46
COc1cc(-c2nnc3n2CCCN3C(c2ccccc2)C2CC2)ccc1-n1cnc(C)c1 (centres undefined)	Gamma-secretase (Homo sapiens) (UniProt Q96BI3+Q9NZ42+Q8WW43+P49768+Q92542+P49810)	1
COc1cc(-c2nnc3n2CCCN3Cc2ccc(C#N)cc2)ccc1-n1cnc(C)c1	Gamma-secretase (Homo sapiens) (UniProt Q96BI3+Q9NZ42+Q8WW43+P49768+Q92542+P49810)	3
CCCCCN1CCCn2c(-c3ccc(-n4cnc(C)c4)c(OC)c3)nnc21	Gamma-secretase (Homo sapiens) (UniProt Q96BI3+Q9NZ42+Q8WW43+P49768+Q92542+P49810)	14

Now turn to the next compound.
[ask] Param item = CCC(c1cc(F)c(F)c(F)c1)N1CCCc2c(-c3ccc(-n4cnc(C)c4)c(OC)c3)n[nH]c21 (centres undefined) ; retrieve measured Ratio IC50.
[reply] 99

---

Biological target: Gamma-secretase
Experiment: Inhibition of gamma secretase-mediated amyloid beta42 production in HEK293 cells by sandwich immunoassay
Value kind: pIC50
Expect pIC50 as a plain number equal to -log10 of the molar concentration.

Compound	pIC50
COc1cc(-c2noc3c2CCCN3[C@@H](C)c2cc(F)cc(F)c2)ccc1-n1cnc(C)c1	6.03
COc1cc(-c2noc3c2CCCN3[C@@H](C)c2ccc(F)cc2)ccc1-n1cnc(C)c1	6.35
COc1cc(-c2onc3c2CCCN3[C@@H](C)c2ccc(F)cc2)ccc1-n1cnc(C)c1	6.33

[ask] Value lookup for pIC50; key = COc1cc(-c2nnc3n2CCCN3C(C)c2c(F)cc(F)cc2F)ccc1-n1cnc(C)c1 (centres undefined)
[reply] 6.47

[ask] Given the entry `COc1cc(-c2onc3c2CCCN3[C@@H](C)c2ccccc2)ccc1-n1cnc(C)c1` , report its measured pIC50.
[reply] 6.27

[ask] Reported pIC50 for `CC[C@H](c1cc(F)c(F)c(F)c1)N1CCCc2c(-c3ccc(-n4cnc(C)c4)c(OC)c3)n[nH]c21` : what is it?
[reply] 6.68

[ask] Please give the measured pIC50 for this compound: `COc1cc(-c2onc3c2CCCN3Cc2ccc(F)cc2)ccc1-n1cnc(C)c1`
[reply] 6.45

[ask] // returns reported pIC50 for input `COc1cc(-c2nnc3n2CCCN3C(=O)Cc2ccc(F)cc2)ccc1-n1cnc(C)c1`
[reply] 5.72

[ask] # query: pIC50 of entry COc1cc(-c2nnc3n2CCCN3C(c2ccc(F)cc2)C2CC2)ccc1-n1cnc(C)c1 (centres undefined)
[reply] 4.79

[ask] Need pIC50 of `COc1cc(-c2nnc3n2CCCN3CCc2ccc(F)cc2)ccc1-n1cnc(C)c1` , thanks.
[reply] 6.21

[ask] What value of pIC50 has been recorded for this entry: `CC[C@@H](c1cc(F)c(F)c(F)c1)N1CCCc2c(-c3ccc(-n4cnc(C)c4)c(OC)c3)n[nH]c21`
[reply] 6.91

---

# pIC50 annotations
Target: Gamma-secretase
Experiment: Inhibition of gamma secretase-mediated amyloid beta42 production in HEK293 cells by sandwich immunoassay
Scale explanation: pIC50 corresponds to minus log10 of a concentration expressed in moles per litre.

[ask] Tell me the measured pIC50 of `COc1cc(-c2nnc3n2CCCN3Cc2ccc(Cl)c(Cl)c2)ccc1-n1cnc(C)c1` , please.
[reply] 6.90

[ask] Which pIC50 is reported for this compound? COc1cc(-c2nnc3n2CCCN3C(c2ccccc2)C2CC2)ccc1-n1cnc(C)c1 (stereo not given)
[reply] 4.70

[ask] Please give the measured pIC50 for this compound: `COc1cc(-c2nnc3n2CCCN3)ccc1-n1cnc(C)c1`
[reply] 4.70

[ask] Using the record for COc1cc(-c2nnc3n2CCCN3C(=O)C(C)c2ccc(F)cc2)ccc1-n1cnc(C)c1 (stereo not given) , report its pIC50.
[reply] 6.31

[ask] Need pIC50 of COc1cc(-c2nnc3n2CCCN3C(C)c2cc(F)c(F)c(F)c2)ccc1-n1cnc(C)c1 (stereo not given) , thanks.
[reply] 6.94

---

Reported IC50 values follow for various molecules
Target: Gamma-secretase
Assay: Inhibition of gamma secretase-mediated amyloid beta42 production in HEK293 cells by sandwich immunoassay
Provide only the numeric value, understood in nM.

Consider the worked cases shown below.
COc1cc(-c2nnc3n2CCCN3Cc2ccc(F)c(F)c2)ccc1-n1cnc(C)c1 552
CCCCCN1CCCn2c(-c3ccc(-n4cnc(C)c4)c(OC)c3)nnc21 1410
COc1cc(-c2nnc3n2CCCN3C(=O)N2CCOCC2)ccc1-n1cnc(C)c1 20000
COc1cc(-c2noc3c2CCCN3[C@H](C)c2ccc(F)cc2)ccc1-n1cnc(C)c1 1390

In the following, a different molecule is considered.
[ask] # returns recorded IC50 (system: Gamma-secretase) for `COc1cc(-c2nnc3n2CCCN3S(=O)(=O)c2ccc(F)cc2)ccc1-n1cnc(C)c1`
[reply] 2210

---

Target: Gamma-secretase
Assay: Inhibition of gamma secretase-mediated amyloid beta42 production in HEK293 cells by sandwich immunoassay
Format: cell-based, Homo sapiens
Items are presented alongside their recorded pIC50.
Reminder that pIC50 means the negative base-10 logarithm of the concentration expressed in mol/L.

Use these answered entries as a reference point.
Compound	pIC50
COc1cc(-c2nnc3n2CCCN3C(C)c2ccc(F)cc2)ccc1-n1cnc(C)c1 (stereo not drawn)	6.29
CCC(c1ccc(F)cc1)N1CCCn2c(-c3ccc(-n4cnc(C)c4)c(OC)c3)nnc21 (stereo not drawn)	6.81
CCCCC(=O)N1CCCn2c(-c3ccc(-n4cnc(C)c4)c(OC)c3)nnc21	5.68
CCC(c1cc(F)c(F)c(F)c1)N1CCCc2c(-c3ccc(-n4cnc(C)c4)c(OC)c3)n[nH]c21 (stereo not drawn)	6.70

[ask] For the compound shown here, `CC[C@@H](c1ccc(F)cc1)N1CCCc2c(-c3ccc(-n4cnc(C)c4)c(OC)c3)noc21` , give the reported pIC50.
[reply] 6.06

[ask] Item `COc1cc(-c2noc3c2CCCN3[C@@H](C)c2cc(F)c(F)c(F)c2)ccc1-n1cnc(C)c1` has what recorded pIC50?
[reply] 6.27

[ask] Look up pIC50 for this compound: `COc1cc(-c2nnc3n2CCCN3Cc2ccc(C#N)cc2)ccc1-n1cnc(C)c1`
[reply] 5.60

[ask] What does the data say about its pIC50? Entry: `COc1cc(-c2nnc3n2CCCN3Cc2ccc(F)cc2)ccc1-n1cnc(C)c1`
[reply] 6.19
